// data source = patent US20030148958A1

# systemUnderTest: T1, corticotropin releasing factor 2 receptor
# T1 sequence (Q13324 whole entry, species assumed, looked up): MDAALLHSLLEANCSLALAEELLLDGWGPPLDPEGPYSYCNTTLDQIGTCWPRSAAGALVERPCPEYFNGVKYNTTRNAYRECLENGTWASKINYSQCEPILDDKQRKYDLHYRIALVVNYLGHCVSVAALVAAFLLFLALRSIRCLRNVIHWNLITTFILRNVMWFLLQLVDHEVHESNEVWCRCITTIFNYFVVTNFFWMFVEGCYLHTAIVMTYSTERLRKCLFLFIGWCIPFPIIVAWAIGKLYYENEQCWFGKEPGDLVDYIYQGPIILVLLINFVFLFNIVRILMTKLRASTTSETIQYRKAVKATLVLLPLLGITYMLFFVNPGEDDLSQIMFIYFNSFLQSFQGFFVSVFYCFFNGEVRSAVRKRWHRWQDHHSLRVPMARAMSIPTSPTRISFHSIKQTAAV
# experimentSummary: cell-based or functional assay
Ends that are not written are not given here.
readoutKind: CRF2R EC50 (nM)
Give the number; nM is assumed, so skip it.

DNPSLSIDLPFHLLRTLLELARTQSQRERAEQNAIIFASV-NH2 [SEQ ID NO 185]; 8.98
ZGPPISIDLPFQLLRKMIEIEKQEKEKQQATTNRLLLARV (C-terminal amide) [SEQ ID NO 19]; 7.42
SQEPPISLDLTIGLLREVLEMTKADQLAQQAHSNRKLLDIA-NH2 [SEQ ID NO 86]; 100
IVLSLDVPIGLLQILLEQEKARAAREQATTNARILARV-NH2 [SEQ ID NO 107]; 12.1

Attention now turns to another entry.
QUERY: Which CRF2R EC50 is reported for this binder? ZGPPISIDLPQYLLRKMIEIEKQEKEKQQAANNRLLLDTI (C-terminal amide) [SEQ ID NO 27]
RESULT: 10.7
